B1: Serine/threonine-protein kinase A-Raf, residues 21 to 89; numbered along this chain, P10398 (parent)
chain: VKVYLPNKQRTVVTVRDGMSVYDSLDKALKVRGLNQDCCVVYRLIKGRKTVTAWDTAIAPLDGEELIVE

# Variants of: B1
# experiment_summary: abundance fitness (aPCA) (normalised: wild type 0, dead -1); higher = more abundant; growth selection in yeast, the domain comes from the species named
# reported_conditions: Homo sapiens
Provide the recorded abundance fitness for the entries that follow.
Give your answer as a number; write no unit.

Query string: Dear colleague, I am looking for the recorded abundance fitness of the following variant: VKVYLPNKQRTVVTVRDGMSVYDSLDKALKVRGLRQDCCVVYRLIKGRKTVTAWDTAIAPLDGEELIVE
Result string: -0.101

Query string: Dear colleague, I am looking for the recorded abundance fitness of the following variant: VKVYTPNKQRTVVTVRDGMSVYDSLDKALKVRGLNQDCCVVYRLIKGRKTVTAWDTAIAPLDGEELIVE
Result string: -0.916

Query string: Dear colleague, I am looking for the recorded abundance fitness of the following variant: VKVYLPNKQRTVVTVRDGMSVYDSLDKALKVRGLNQDCCVVYRLIKGRKTVTAWDTAIAPKDGEELIVE
Result string: -0.142

Query string: Dear colleague, I am looking for the recorded abundance fitness of the following variant: VKVYLPNKQRTVVTVRDGMSVYDSLDKALKVRGLNQDCCQVYRLIKGRKTVTAWDTAIAPLDGEELIVE
Result string: 0.073

Query string: Dear colleague, I am looking for the recorded abundance fitness of the following variant: VKVYLPNKQRTVVTVRDGMSVYDSLDKALKVEGLNQDCCVVYRLIKGRKTVTAWDTAIAPLDGEELIVE
Result string: -0.193

Query string: Dear colleague, I am looking for the recorded abundance fitness of the following variant: VKVYLPNKQRTVVTVRDGMSVYDSLDKALKVRGLNQDCCVVYMLIKGRKTVTAWDTAIAPLDGEELIVE
Result string: -1

Query string: Dear colleague, I am looking for the recorded abundance fitness of the following variant: VKVYLPNKQRTVVTVRDGMSVYDSLDKALKVRGLNQDCCVVYRLIKGRKTVTAWDTAIAHLDGEELIVE
Result string: -0.06

Query string: Dear colleague, I am looking for the recorded abundance fitness of the following variant: VKVYLPNKQRTVVTVRDGMSVYDSLDKMLKVRGLNQDCCVVYRLIKGRKTVTAWDTAIAPLDGEELIVE
Result string: -0.037

Query string: Dear colleague, I am looking for the recorded abundance fitness of the following variant: VKVYLPNKQRTVVTVRDGMSVYDSLDKWLKVRGLNQDCCVVYRLIKGRKTVTAWDTAIAPLDGEELIVE
Result string: -0.425

Query string: Dear colleague, I am looking for the recorded abundance fitness of the following variant: VKVYLPNKQRTVVTVRDGMSVYDSLDKALKVRGLNQDCCVVYRLIKGRKTVTAWDTAIAPHDGEELIVE
Result string: -0.312

Query string: Dear colleague, I am looking for the recorded abundance fitness of the following variant: VKVYLPNKQRTVVTVRDGMSVYDSLDKARKVRGLNQDCCVVYRLIKGRKTVTAWDTAIAPLDGEELIVE
Result string: -0.969

Query string: Dear colleague, I am looking for the recorded abundance fitness of the following variant: VKVYLPNKQRTVVTVRDGMSVYDSLDKALKVRGLNQDCCVVYRLIKGRKTVTAWDTAIASLDGEELIVE
Result string: 0.098

Query string: Dear colleague, I am looking for the recorded abundance fitness of the following variant: VKVYLPNKQRTVVTVRDGMSVYDSLDKALKVRGLNQDCCVVYRLIKGRKTVTAWDTAIAPLDTEELIVE
Result string: -0.128

Query string: Dear colleague, I am looking for the recorded abundance fitness of the following variant: VKVYLPNKQRTVVTVRDGMSVYDSLDKALKVRGLNQDCCVVYRCIKGRKTVTAWDTAIAPLDGEELIVE
Result string: -0.684

Query string: Dear colleague, I am looking for the recorded abundance fitness of the following variant: VKVYLPNKQRTVVTVRDGMSVYDSLDKALKVRGLNQDCCVVYRLIKGEKTVTAWDTAIAPLDGEELIVE
Result string: 0.025

Query string: Dear colleague, I am looking for the recorded abundance fitness of the following variant: VKVYLPNKQRTVVTVRDGMSVYDSLDKALKVRGLNQDCCVPYRLIKGRKTVTAWDTAIAPLDGEELIVE
Result string: -0.555

Query string: Dear colleague, I am looking for the recorded abundance fitness of the following variant: VKVYLPNKQRTVVTVRDGMSVYDSLDKALKVRGLNQDCCVVYRLIKGRKTVTAWDTAIAPLDGEELIVQ
Result string: -0.6

Query string: Dear colleague, I am looking for the recorded abundance fitness of the following variant: VKVYLPNKIRTVVTVRDGMSVYDSLDKALKVRGLNQDCCVVYRLIKGRKTVTAWDTAIAPLDGEELIVE
Result string: -0.162

Query string: Dear colleague, I am looking for the recorded abundance fitness of the following variant: VKVYLPNGQRTVVTVRDGMSVYDSLDKALKVRGLNQDCCVVYRLIKGRKTVTAWDTAIAPLDGEELIVE
Result string: 0.16

Query string: Dear colleague, I am looking for the recorded abundance fitness of the following variant: VKVYLPNKQRTVVTVRDGMSVYDSLDKALKVRGLNQDCCVVYSLIKGRKTVTAWDTAIAPLDGEELIVE
Result string: -0.305

Query string: Dear colleague, I am looking for the recorded abundance fitness of the following variant: VKVYEPNKQRTVVTVRDGMSVYDSLDKALKVRGLNQDCCVVYRLIKGRKTVTAWDTAIAPLDGEELIVE
Result string: -0.844

Query string: Dear colleague, I am looking for the recorded abundance fitness of the following variant: VKVYLPNKQRTVVTVRDPMSVYDSLDKALKVRGLNQDCCVVYRLIKGRKTVTAWDTAIAPLDGEELIVE
Result string: -0.659

Query string: Dear colleague, I am looking for the recorded abundance fitness of the following variant: VKVFLPNKQRTVVTVRDGMSVYDSLDKALKVRGLNQDCCVVYRLIKGRKTVTAWDTAIAPLDGEELIVE
Result string: -0.063

Query string: Dear colleague, I am looking for the recorded abundance fitness of the following variant: VKVYLPNKQRTVVTVRDGMSVYDSLDKALKVRGLNQDCCVVYRLIKGRTTVTAWDTAIAPLDGEELIVE
Result string: -0.968

Query string: Dear colleague, I am looking for the recorded abundance fitness of the following variant: VKVYLPNKQRTVVTVRDGMSVYDSLDKALKVRGLNQDCCVVYRLIKGRKTVTAWDTAIAPLDGEFLIVE
Result string: -0.607

Query string: Dear colleague, I am looking for the recorded abundance fitness of the following variant: VKVYLPNKQRTVVTVRDGMSVYDSLDKALKVRGLNQDCCVVYRLIKGRKTVKAWDTAIAPLDGEELIVE
Result string: -0.356

Query string: Dear colleague, I am looking for the recorded abundance fitness of the following variant: VKVYLPNKQRTYVTVRDGMSVYDSLDKALKVRGLNQDCCVVYRLIKGRKTVTAWDTAIAPLDGEELIVE
Result string: 0.019

Query string: Dear colleague, I am looking for the recorded abundance fitness of the following variant: VKVYLPNKQRTVVTVRDGMSVYDSLDKALKVKGLNQDCCVVYRLIKGRKTVTAWDTAIAPLDGEELIVE
Result string: -0.369

Query string: Dear colleague, I am looking for the recorded abundance fitness of the following variant: VKVYLPNKQLTVVTVRDGMSVYDSLDKALKVRGLNQDCCVVYRLIKGRKTVTAWDTAIAPLDGEELIVE
Result string: -0.059

Query string: Dear colleague, I am looking for the recorded abundance fitness of the following variant: VKVYLPNKQRQVVTVRDGMSVYDSLDKALKVRGLNQDCCVVYRLIKGRKTVTAWDTAIAPLDGEELIVE
Result string: -0.1

Query string: Dear colleague, I am looking for the recorded abundance fitness of the following variant: VKVYLPNKQRTVVTVRDGMSVYDSLDKALKVRGLNQDCCVVYRLIKGRKTVTAWDTAIAPLRGEELIVE
Result string: -0.049

Query string: Dear colleague, I am looking for the recorded abundance fitness of the following variant: VKVYLPNKQRTVVTVRDGMSVYDSLDKALKVRGLNQHCCVVYRLIKGRKTVTAWDTAIAPLDGEELIVE
Result string: -0.097

Query string: Dear colleague, I am looking for the recorded abundance fitness of the following variant: VKVYLGNKQRTVVTVRDGMSVYDSLDKALKVRGLNQDCCVVYRLIKGRKTVTAWDTAIAPLDGEELIVE
Result string: -0.463

Query string: Dear colleague, I am looking for the recorded abundance fitness of the following variant: VKVYLPNKQRTVVTVRDGMNVYDSLDKALKVRGLNQDCCVVYRLIKGRKTVTAWDTAIAPLDGEELIVE
Result string: -0.122

Query string: Dear colleague, I am looking for the recorded abundance fitness of the following variant: VKVYLPNKQRTVVTVRDGMSVYDSLDKDLKVRGLNQDCCVVYRLIKGRKTVTAWDTAIAPLDGEELIVE
Result string: -0.371

Query string: Dear colleague, I am looking for the recorded abundance fitness of the following variant: VKVYPPNKQRTVVTVRDGMSVYDSLDKALKVRGLNQDCCVVYRLIKGRKTVTAWDTAIAPLDGEELIVE
Result string: -0.778

Query string: Dear colleague, I am looking for the recorded abundance fitness of the following variant: VKVYLPNVQRTVVTVRDGMSVYDSLDKALKVRGLNQDCCVVYRLIKGRKTVTAWDTAIAPLDGEELIVE
Result string: -0.723
